Tested on: UACC-257 melanoma
Assay: NCI-60 one-dose screen, 48 h
Conditions: 10 µM unless noted
About 83,000 compounds went through this panel and 20% of them were active in at least one assay; those are over-represented in the sample as a whole. Activity calls are given as the source filed them. How the source made its calls: active means growth percent below 10; inactive means the rest.
Answer with one of the outcomes Y = active, N = inactive

# count of solved cases: 4
{"compound": "COc1cc(/C=C/C(=O)CC(=O)/C=C/c2ccc(OC(=O)C3C4CC5CC(C4)CC3C5)c(OC)c2)ccc1OC(=O)C1C2CC3CC(C2)CC1C3 (configuration not stated)", "category label": "N"}
{"compound": "COc1ccc2nc(-c3ccc(Cl)cc3)cc(-c3nnc(SCC(=O)Nc4ccc(C(C)=O)cc4)n3-c3ccccc3)c2c1", "category label": "N"}
{"compound": "COc1ccc2cc(C3=CC(=O)CCC3)ccc2c1", "category label": "N"}
{"compound": "COc1cc(C(=O)/C=C/c2cccc(Nc3ccnc4cc(Cl)ccc34)c2)cc(OC)c1OC", "category label": "N"}

Now look at this one.
Asked: What is the recorded call for this compound in the test? C[C@@H]1[C@H]2[C@H](C=C3[C@@H]4CC[C@H]5Cc6nc7c(nc6C[C@]5(C)[C@H]4C[C@@H](O)[C@@]32C)C[C@@H]2CC[C@H]3C4=C[C@@H]5O[C@@]6(CC[C@](C)(CO)O6)[C@@H](C)[C@@]5(O)[C@@]4(C)[C@H](O)C[C@@H]3[C@@]2(C)C7)O[C@]12CCC(C)(C)O2
Given back: N

---

Listed below: growth values for each entry.
Tested on: SNB-75 CNS
Experiment: NCI-60 one-dose screen, 48 h (100 = growth as untreated, 0 = no growth, -100 = all killed)
Settings: 10 µM unless noted
Compounds without any hit were thinned out: in the full panel of roughly 83,000, 20% have a hit.
Lab book: enter the figure in %, no units written.

{"compound": "CC(=O)Nc1c(Cl)cc2c(c1Cl)Cc1cc([N+](=O)[O-])ccc1-2", "reading unit": "%", "growth": 36.6}

Noted for C[C@H]1C(=O)N2c3ccccc3[C@@]3(O)C[C@@H](n4cnc5ccccc5c4=O)C(=O)N1[C@@H]23 : its growth reads 98.3

So, O=C(/C=C/c1cccc(Nc2ccnc3cc(Cl)ccc23)c1)c1ccc(Cl)cc1 ? Its growth was 67.6

Measured growth of Cc1sc2nc(N3CCCCC3)[nH]c(=O)c2c1C : 91

Recorded growth (compound N#Cc1c(NC(=O)c2ccco2)[n+]([O-])c2cc(Cl)c(Cl)cc2[n+]1[O-] ): 103

For record CC1CN(/N=C/c2ccc([N+](=O)[O-])o2)C(=N)O1 (stereo not given) the listed growth is 105

Note to self: growth recorded for COc1c(Br)cc(C(c2cc(Br)c(OC)c(Br)c2)c2ccccc2C(=O)O)cc1Br was 76.7

In plain terms, Nc1nc(NC2CC2)c2ncn(C3C=CC(CO)C3)c2n1 (stereo not given) has a documented growth of 117

Documented growth of O=c1[nH]cc(Nc2cc(Cl)c3nonc3c2[N+](=O)[O-])c(=O)[nH]1 : 119

The reported value for O=C1N=C(N2CCOCC2)S/C1=C\c1cn(-c2ccccc2)nc1-c1ccccc1 in terms of growth is -30.2

So, COc1cc(/C=C/C(=O)c2c(C)n([O-])c3ccccc3[n+]2=O)cc(OC)c1OC ? Its growth was 81

What the record says about O=C(C(=O)N1CCOCC1)c1cn(CCCn2cc(C(=O)C(=O)N3CCOCC3)c3ccccc32)c2ccccc12 : growth is 94.7

# growth (compound: CCOC(=O)Nc1ccc2c3c(cccc13)-c1ccccc1-2 ) is 6.18

The reported value for CC(=O)c1ccccc1NC(=O)C(C)(c1ccccc1)c1ccccc1 in terms of growth is 81.1

Looking up CN1CCN(CCCCCN=c2cc3c(=O)n(CCCCCN4CCN(C)CC4)c(=O)c4c(NCCCCCN5CCN(C)CC5)cc5c(O)n(CCCCCN6CCN(C)CC6)c(=O)c2c5c4-3)CC1 , I found its growth recorded as -8.4

Lab book: growth of COc1ccc(NS(=O)(=O)N2CCCCC2)cc1 noted as 115

Given item O=C(CC(C(=O)c1ccccc1)N1CCN(Cc2ccccc2)CC1)c1ccccc1 (stereo not given) , the value recorded as its growth is 91.7

Notebook: C/C(=C\CCc1ccoc1)CC/C=C(\C)CCCC1COC(=O)C1 (stereo not given) , growth read as 96.7

Reported growth of COc1cc2c(cc1OC)C(=O)/C(=C/c1cccc(OCC(=O)c3ccccc3)c1)C2 : 85.2

Looking up COc1ccc([N+](=O)[O-])c(S(=O)(=O)c2ccc(Cl)cc2)n1 , I see its growth listed as 78

---

Below, each entry is listed with its recorded growth.
Tested on: A549/ATCC NSCLC
Assay: NCI-60 one-dose screen, 48 h (100 = growth as untreated, 0 = no growth, -100 = all killed)
Details: 10 µM unless noted
Compounds without any hit were thinned out: in the full panel of roughly 83,000, 20% have a hit. Activity calls are given as the source filed them. The calls were made as follows: active = growth percent below 10; inactive = the rest.

Examples with answers:
{"compound": "O=C(O)CNC(=O)C1(N2C(=O)c3ccccc3C2=O)CCCC1", "tested on": "A549/ATCC NSCLC", "assay value": "99% (inactive)"}
{"compound": "c1ccc(Nc2ccc(Nc3nc(-c4ccccc4)nc4ccccc34)cc2)cc1", "tested on": "A549/ATCC NSCLC", "assay value": "63.2% (inactive)"}

Tested system A549/ATCC NSCLC; growth recorded for CC(=O)Nc1c(Cl)cc2c(c1Cl)Cc1cc([N+](=O)[O-])ccc1-2 was 74.5% (inactive)

GET /values?item= Cc1ccc(/C=C(/C#N)n2nnc3ncccc32)cc1 &system= A549/ATCC NSCLC returns growth: 2.14% (active)

Form field, growth with A549/ATCC NSCLC, item COc1cc2c(cc1OC)C(CC1(O)CCCCC1)N(S(=O)(=O)c1ccc(C)cc1)CC2 (stereo unspecified) : 20.9% [100 µM] (inactive)

---

System: K-562 leukemia
Test: NCI-60 one-dose screen, 48 h
Conditions: 10 µM unless noted
This is part of a sample that, as a whole, favours compounds with a hit. Of some 83,000 tested, about 20% had one in any assay. The source made the active and inactive calls. How the source made its calls: active means growth percent below 10; inactive means the rest.
Choose one outcome from this list and give only that: 1.0 for active, 0.0 for inactive

See these solved cases before continuing.
{"compound": "CC[n+]1c(/C=C/c2ccc(N3CCCC3)cc2)cccc1/C=C/c1ccc(N2CCCC2)cc1", "category label": 1.0}
{"compound": "COc1ccc(-c2cc(-c3cccnc3)nc(S(=O)(=O)CC(=O)Nc3ccc(C)cc3)c2C#N)cc1OC", "category label": 0.0}
{"compound": "COc1cc(OC)c2c(c1Cl)O[C@]1(C2=O)C(OCc2ccccc2)=CC(=O)C[C@H]1C", "category label": 1.0}

Asked: // outcome(item) with item = C/C=C(/C(=C/C)c1ccc(O)cc1)c1ccc(O)cc1
Given back: 0.0

Asked: Could you kindly confirm the outcome this assay logged for CCOC(=O)C(Br)=P(c1ccccc1)(c1ccccc1)c1ccccc1 ?
Given back: 0.0

Asked: Which outcome was entered for the compound Cc1cc2c(cc1C)[n+](Cc1ccc3ccccc3n1)cn2Cc1ccc2ccccc2n1 in this test?
Given back: 1.0

Asked: For this compound, state the assay outcome: [N-]=[N+]=NCc1ncc(-c2ccc(C(F)(F)F)cc2)c(NC2CCCCCC2)n1
Given back: 0.0

Asked: For Nc1ccc(N=Nc2ccccc2)cc1[N+](=O)[O-] , which call appears in the assay record?
Given back: 0.0

Asked: What call does the record list for CCOc1cc(/C=C/C(=O)C(C(=O)/C=C/c2ccc(OC(=O)CNc3nc4ccccc4[nH]3)c(OCC)c2)C(=O)CNc2nc3ccccc3[nH]2)ccc1OC(=O)CNc1nc2ccccc2[nH]1 ?
Given back: 1.0

Asked: Dear colleague, could you share the recorded outcome for O=C(Nc1nc2c(C(F)(F)F)cccc2s1)c1cc(Cl)ccc1O when you have a moment?
Given back: 1.0

Asked: Hey, what did the test say about Cc1ccc(-c2csc(N)n2)cc1 ?
Given back: 0.0

Asked: For this compound, state the assay outcome: BrC1CC(Br)c2c1c1c(c3c2C(Br)CC3Br)C(Br)CC1Br (stereo not given)
Given back: 0.0

Asked: Which outcome was assigned to O=C1C=CC(=O)N1c1ccccn1 in this test?
Given back: 0.0

Asked: State the result this test recorded for COC(=O)c1cc2oc(/C=N\NC(=O)c3cc4oc(C)c(C)c4[nH]3)cc2[nH]1 .
Given back: 0.0

---

Tested on: SK-OV-3 ovarian
Assay: NCI-60 one-dose screen, 48 h
Conditions: 10 µM unless noted
About 83,000 compounds went through this panel and 20% of them were active in at least one assay; those are over-represented in the sample as a whole. Calls of active or inactive are those of the source. Rule for the calls: active = growth percent below 10; inactive = the rest.
Outcome (select one): label 1 = active, label 0 = inactive

Some solved cases for reference:
{"compound": "CCOC(=O)c1sc(NC(=O)COc2cccc(/C=C3\\Cc4ccc(Cl)cc4C3=O)c2)nc1C", "tested on": "SK-OV-3 ovarian", "category label": "label 0"}
{"compound": "O=C1/C(=C/c2ccccc2Cl)CCc2ccccc21", "tested on": "SK-OV-3 ovarian", "category label": "label 0"}

Asked: Query: recorded result category for N#Cc1c(-c2ccccc2)cc(-c2ccccc2)n(CC(=O)O)c1=O in this test
Given back: label 0

Asked: Query: recorded result category for OC(c1cc(-c2cccc(Cl)c2)nc2ccccc12)C1CCCCN1 (configuration not stated) in this test
Given back: label 0

Asked: Give the logged outcome of this assay for the following compound: COc1ccc2nc(N/N=C(\C)c3ccccn3)cc(C)c2c1
Given back: label 0

Asked: Field: outcome | Entry: O=C(N/N=C/c1cccc(O)c1)c1ccc(C(F)(F)F)nc1Nc1cccc(C(F)(F)F)c1
Given back: label 0

Asked: Called result for O=C1NC(=O)/C(=C\c2ccco2)S1
Given back: label 0

Asked: Name the outcome recorded for O=C1/C(=C/c2ccccc2O)C(=S)SN1Cc1ccco1 in the assay.
Given back: label 0

Asked: Status in this test for O=C(NCCNC(=O)Oc1cccc2ccccc12)Oc1cccc2ccccc12 ?
Given back: label 0

Asked: What call does the record list for CCCCCCCCCCCCC1CCCC(C)C1 (configuration not stated) ?
Given back: label 0

Asked: Which outcome was assigned to CCOC(=O)C(Br)=P(c1ccccc1)(c1ccccc1)c1ccccc1 in this test?
Given back: label 0

Asked: How did this test come out for CSc1nc(Nc2ccc(S(=O)(=O)Nc3ccon3)cc2)c(C#N)c(-c2ccc(Cl)cc2)n1 ?
Given back: label 0

Asked: In this assay, the call recorded for C[C@@H]1C[C@@H]([C@@H](CC2CC(=O)NC(=O)C2)OC(=O)CC(=O)c2ccccc2)C(=O)[C@@H](C)C1 was what?
Given back: label 1

Asked: Outcome? COc1ccc(/C=C/C(=O)c2cccc(NS(C)(=O)=O)c2)cc1
Given back: label 0

Asked: Entry COc1cnc2c(c1)C(=O)c1c-2n(CCCNC2=NCCS2)c(=O)c2cc(F)ccc12 : call = ?
Given back: label 0

Asked: Could you check what this test reported for N#Cc1c(-c2ccccc2)cc(-c2ccccc2)n(CCCC(=O)O)c1=O ?
Given back: label 0

Asked: Which outcome was assigned to Cc1[nH]ccc2cc3nc4ccccc4c3cc12 in this test?
Given back: label 0

Asked: Could you kindly confirm the outcome this assay logged for CC(C)Sc1nc(Cl)c(C#N)c(-c2ccc(F)cc2)n1 ?
Given back: label 0
